# STUDY_SYSTEM: Cathepsin K (Homo sapiens)
# Sequence (P43235 whole entry): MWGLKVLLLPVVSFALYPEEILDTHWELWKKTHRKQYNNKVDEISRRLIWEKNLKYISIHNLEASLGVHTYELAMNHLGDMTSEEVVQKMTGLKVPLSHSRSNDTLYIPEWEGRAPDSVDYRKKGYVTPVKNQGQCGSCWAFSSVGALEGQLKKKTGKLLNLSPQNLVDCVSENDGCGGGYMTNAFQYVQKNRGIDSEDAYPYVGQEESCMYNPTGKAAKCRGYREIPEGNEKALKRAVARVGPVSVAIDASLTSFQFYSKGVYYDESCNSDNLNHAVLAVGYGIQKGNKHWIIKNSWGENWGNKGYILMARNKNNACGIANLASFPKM
Each entry below lists one item and its recorded Ki value.
Value expressed in µM; do not type the unit.

// worked examples, Ki included
SMILES: C[C@@H](CN1c2ccc(F)cc2CC1(C)C)NC(=O)[C@H](CC1CCCCC1)NC(=O)N1CCOCC1
UNIT: µM
Ki: 13.1
--
SMILES: C[C@@H](CNc1ccc(OC(F)(F)F)cc1)NC(=O)[C@H](CC(C)(C)C)NC(=O)N1CCOCC1
UNIT: µM
Ki: 0.461
--
SMILES: O=C(N[C@@H](CC1CCCCC1)C(=O)NCCNc1ccc(OC(F)(F)F)cc1)c1ccco1
UNIT: µM
Ki: 8.81

Moving on to another compound below.
Given the compound C[C@@H](CNc1ccc(OC(F)(F)F)cc1)NC(=O)[C@H](CC1CCCCC1)NC(=O)OC1CCOCC1 , what is its reported Ki?
13.3

From: ChEMBL document CHEMBL1149524
